# Tested on: HeLa
# Assay details: Primary qHTS to identify gynecologic anti-cancer compounds using libraries of approved drugs and bioactive compounds (AID 1345084); note: % is set by controls: 0 for no effect and ±100 for the full control effect; nearly all actives have a fitted effect of over 55% in size
# Condition: Gynecologic cancer cell panel viability, ATPlite luminescence, 48 h; series mostly up to 57.5 µM
Inconclusive results are not listed. The source made the active and inactive calls. Calls come from the whole dose curve; as a rule, active = well fitted cell-killing curve with a large enough effect; inconclusive = small, poorly fitted or top-dose-only effect, or effect the other way; inactive = flat fitted curve, though single readings scatter. Where a SMILES comes first, the peptide text is derived from it.
Observable: activity change, negative = cytotoxicity

- Molecule: "CC(C)C1NC(=O)CNC(=O)C2CCCN2C(=O)C(Cc2c[nH]c3ccccc23)NC(=O)CNC(=O)C(Cc2ccc(O)cc2)NC(=O)CNC1=O (centres undefined) (cyclo(GVGYGWP); configuration not given here)"
  System tested: "HeLa"
  Endpoint value: "inactive"
- Molecule: "C=C1CC[C@@]2(OC1)O[C@H]1CC3C4CC=C5C[C@@H](O[C@@H]6O[C@@H](C)[C@H](O)[C@@H](O)[C@H]6O)C[C@@H](O[C@@H]6O[C@H](C)[C@H](O)[C@H](O)[C@H]6O[C@@H]6O[C@@H](C)[C@H](O)[C@@H](O)[C@H]6O)[C@]5(C)C4CC[C@]3(C)[C@H]1[C@@H]2C (some centres undefined)"
  System tested: "HeLa"
  Endpoint value: "18.7% [at 11.6 µM] (inactive)"
- Molecule: "COC(O)(CC(C)C)C1Oc2cc(C)[nH]c(=O)c2O1 (centres undefined)"
  System tested: "HeLa"
  Endpoint value: "inactive"
- Molecule: "CC(=O)O[C@@]1(C)[C@@H]2CC(=C(C)C)C(=O)C[C@@]2(C)CC[C@H]1OC(=O)C1(C)OC1C (some centres undefined)"
  System tested: "HeLa"
  Endpoint value: "inactive"

###

# Assay details: Primary redox qHTS assay for identification of artifact compounds. (AID 1845223);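 note: 0% = DMSO and 100% = reference compound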
# Condition: Amplex Red/HRP redox cycling with DTT, fluorescence; series mostly up to 53.8 µM
Results filed as inconclusive are left out. Activity calls are given as the source filed them. The call rests on the fitted dose curve; in most records, active means well fitted activation curve with a large enough effect; inconclusive means small, poorly fitted or top-dose-only effect; inactive means flat fitted curve, though single readings scatter.

- Molecule: "C[C@@H]1O[C@@H](O[C@H]2[C@H](OC(=O)[C@]34CCC(C)(C)C[C@H]3C3=CCC5[C@@]6(C)C[C@@H](O)[C@@H](O)[C@@](C)(CO)C6[C@H](O)C[C@@]5(C)[C@]3(C)CC4)OC[C@H](O)[C@@H]2O)[C@H](O)[C@H](O)[C@H]1O[C@@H]1OC[C@@H](O)[C@H](O[C@H]2O[C@H](C)[C@@H](O)[C@H](O)[C@@H]2O)[C@H]1O (stereo partly specified)"
  redox activity (% of DA3003): "18.5% [at 11.5 µM] (inactive)"
- Molecule: "C[C@]12CC/C(=N\\OCC(=O)O)C=C1CC[C@@H]1[C@@H]2[C@@H](O)C[C@@]2(C)[C@H]1CC[C@]2(O)C(=O)CO"
  redox activity (% of DA3003): "inactive"
- Molecule: "C=C(C(=O)O)[C@H]1C[C@]2(C)C(=O)CC[C@]23O[C@H]1C[C@@H]3C"
  redox activity (% of DA3003): "inactive"
- Molecule: "O=C(CC1CC(c2ccc(F)cc2F)=NO1)N1CCOCC1 (stereo unspecified)"
  redox activity (% of DA3003): "inactive"
- Molecule: "CC1=C2C[C@H]3OC(=O)[C@H](O)[C@@]4(O)[C@@H](C)[C@@H](O)[C@H](O)C([C@@]2(C)[C@H](O)[C@@H](O)C1)[C@@]34C (stereo partly specified)"
  redox activity (% of DA3003): "inactive"
- Molecule: "COc1cn(-c2ccc(-n3cccn3)cc2F)nc(-c2ccnn2-c2ccccc2)c1=O"
  redox activity (% of DA3003): "inactive"
